From: PubChem BioAssay AID1942

# measured_on: Potassium voltage-gated channel subfamily KQT member 2 (Rattus norvegicus) (UniProt O88943)
# Sequence (O88943 whole entry, looked up): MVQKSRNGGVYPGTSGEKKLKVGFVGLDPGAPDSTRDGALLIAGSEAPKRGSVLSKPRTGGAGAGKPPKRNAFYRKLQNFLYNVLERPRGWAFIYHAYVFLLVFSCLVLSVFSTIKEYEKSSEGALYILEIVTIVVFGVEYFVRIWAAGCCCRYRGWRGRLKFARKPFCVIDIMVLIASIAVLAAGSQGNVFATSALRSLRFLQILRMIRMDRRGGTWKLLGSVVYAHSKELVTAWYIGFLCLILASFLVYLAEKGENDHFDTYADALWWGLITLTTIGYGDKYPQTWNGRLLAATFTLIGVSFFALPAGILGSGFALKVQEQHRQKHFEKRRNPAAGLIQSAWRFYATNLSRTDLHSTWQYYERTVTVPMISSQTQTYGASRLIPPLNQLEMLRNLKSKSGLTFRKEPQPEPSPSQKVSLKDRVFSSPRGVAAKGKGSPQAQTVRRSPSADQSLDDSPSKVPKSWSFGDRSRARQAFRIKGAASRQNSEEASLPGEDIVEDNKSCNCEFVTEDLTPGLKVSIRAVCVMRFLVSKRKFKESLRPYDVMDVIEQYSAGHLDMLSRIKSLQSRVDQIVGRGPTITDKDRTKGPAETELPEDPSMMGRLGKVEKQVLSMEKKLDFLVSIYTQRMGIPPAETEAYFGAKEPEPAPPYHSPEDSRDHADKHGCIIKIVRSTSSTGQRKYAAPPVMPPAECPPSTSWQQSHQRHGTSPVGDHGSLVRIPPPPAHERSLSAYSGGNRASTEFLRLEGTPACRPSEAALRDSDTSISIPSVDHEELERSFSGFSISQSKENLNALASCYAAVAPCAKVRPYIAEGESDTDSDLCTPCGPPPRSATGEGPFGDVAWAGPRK
# assay_method_text: KCNQ2 potentiation in CHO cells – cell-based, FluxOR thallium flux, counter-screen for hERG block protector project, confirmation (AID 1942);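 also: normalized value minus buffer-control mean plus three SD of buffer wells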
# condition_info: FluxOR thallium flux fluorescence, at 10 µM
The campaign covered roughly 2,400 compounds. About 580 (24%) were called active.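 The calls were made as follows: active = activity change at or above the mean plus 3 SD of buffer wells without dofetilide, per plate; inactive = the rest.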 Not all results are given here.
Possible outcomes: class 1 (active), class 0 (inactive)

compound | group_label
COc1cc2c(=O)nc3n(c2cc1OC)C(c1ccccc1)N=C(N)N3 (stereo unspecified) | class 0
Cc1ccc(C(C)C)c(OCc2n[nH]c(=S)o2)c1 | class 1
CC(C)(C)OC(=O)NCCCC(CCCNC(=O)OC(C)(C)C)C(=O)O | class 0
COc1cccc(C(=O)Nc2cccc(-c3ccc(N4CCOCC4)nn3)c2)c1 | class 0
O=C(CN1C(=O)CSCC1=O)Nc1ccc2c(c1)OCO2 | class 0
CC(=O)c1ccc(N2CCN(C(=O)Cc3ccccc3)CC2)c(F)c1 | class 0

###

# measured_on: Potassium voltage-gated channel subfamily KQT member 2 (Rattus norvegicus) (UniProt O88943)
# assay_method_text: KCNQ2 potentiation in CHO cells – cell-based, FluxOR thallium flux, counter-screen for hERG block protector project, confirmation (AID 1942);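 also: normalized value minus buffer-control mean plus three SD of buffer wells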
# condition_info: FluxOR thallium flux fluorescence, at 10 µM
Out of some 2,400 compounds screened, about 580 (24%) were called active.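 The calls were made as follows: active = activity change at or above the mean plus 3 SD of buffer wells without dofetilide, per plate; inactive = the rest.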 A selection follows.
Possible outcomes: active, inactive

molecule | group_label
CCOCCCNC(=O)C(NC(=O)Cc1cccs1)c1ccc(C)cc1 (centres undefined) | inactive
CN1C(=O)NC(c2cccc([N+](=O)[O-])c2)C2=C1CC(C)(C)CC2=O (centres undefined) | inactive
Cc1ccc(C2c3c(-c4ccccc4O)n[nH]c3C(=O)N2Cc2ccncc2)cc1 (centres undefined) | inactive
COc1ccc(C(=O)NNC(=O)C(=O)NC2CCCCC2)cc1 | inactive
Clc1ccc(Nc2ccc(Cl)nn2)cc1 | active
CSc1ccc(C2NN=C(c3ccccc3)S2)cc1 (centres undefined) | inactive
COc1ccc(N2CCN(C(=S)NC(=O)c3cccs3)CC2)c([N+](=O)[O-])c1 | inactive
CCC(C)Sc1nc2c([nH]c3ccccc32)c(=O)n1C (centres undefined) | inactive
N#Cc1cc(-c2ccccc2)nnc1Oc1ccccc1 | inactive
COCCNC(=O)C(=O)N/N=C/c1ccc(C(=O)OC)cc1 | inactive
Cc1nc(NCCc2ccc(S(N)(=O)=O)cc2)c2c(C)c(C)sc2n1 | active
CC(C)CCNC(=O)CCc1nnc(Cc2c[nH]c3ccccc23)o1 | inactive
COc1cc(NC(=O)c2ccccc2OCc2ccccc2)cc(OC)c1OC | inactive
O=C1NC(=S)SC1=C1CCCCCC1 | active
O=C(NC(=S)N1CCN(c2ccc(Cl)cc2[N+](=O)[O-])CC1)c1cccs1 | active
O=C(NC(=S)N1CCN(c2ccc(C(F)(F)F)cc2[N+](=O)[O-])CC1)c1cccs1 | active
Cc1cc(C(=O)N/N=C/c2ccc(O)c([N+](=O)[O-])c2)n[nH]1 | inactive
COc1ccc(C(=O)NN/C(C)=C/C(=O)c2ccccc2)cc1 | inactive
COc1ccccc1C(=O)NCc1ccc2c(c1)OCO2 | inactive
CC/C(=N\NC(=O)c1nnn(-c2nonc2N)c1-c1cccs1)c1ccccc1 | inactive
Cc1cccc(/C=C2/S/C(=N/N=C3\CC4CCC3(C)C4(C)C)NC2=O)c1 (centres undefined) | inactive
CC(C)n1c(=S)[nH]c2scc(-c3cccs3)c2c1=O | active
COc1ccc(C(=O)O/N=C(\N)c2ccccn2)cc1[N+](=O)[O-] | inactive
O=C(NC(=S)Nc1ccc(N2CCCCC2)c(Cl)c1)c1cccs1 | inactive
COc1ccc(/C=C2/S/C(=N/N=C3\CC4CCC3(C)C4(C)C)NC2=O)cc1 (centres undefined) | inactive
O=S(=O)(c1ccc(F)cc1)N1CCN(c2ccc(F)cc2)CC1 | inactive
COc1ccc(/C=C/c2cc(=O)c3cc(Cl)ccc3o2)cc1 | inactive
COc1ccc(C(C(=O)NC(C)(C)C)N(C(=O)CCC(=O)Nc2cc(C)on2)c2cccc(F)c2)cc1 (centres undefined) | inactive
C=CCN(CC=C)C(=S)NC(=O)c1ccc(C)c(Br)c1 | active
CCOc1ccc(C(=O)NC(=S)N(Cc2ccccc2)Cc2ccccc2)cc1 | inactive
CCCCC(=O)Nc1ccc(NCc2ccc(C)s2)cc1 | active
CCn1c(O)c(N=NC2=NC(=O)CS2)c2cc(C)ccc21 | inactive
COCc1cc(C)nc(OCC(=O)N/N=C/c2ccc(-c3cc([N+](=O)[O-])ccc3Cl)o2)c1C#N | inactive
O=C(Nc1ccc(Cl)c(-c2nc3ccccc3[nH]2)c1)c1cccnc1 | inactive
COc1ccc(C(=O)NC(=S)N(Cc2ccccc2)Cc2ccccc2)cc1 | active
O=C(NC(=S)Nc1cccc(Cl)c1N1CCCCC1)c1cccs1 | inactive
CCOC(=O)c1cnn(-c2nc(SC)nc3sc4c(c23)CCCC4)c1N | inactive
O=C(c1cncc(Br)c1)N1CCc2ccccc2C1 | inactive
Cc1nn(Cc2ccccc2)c2c1C(c1cccnc1)C(C#N)=C(N)O2 (centres undefined) | inactive

###

# measured_on: Potassium voltage-gated channel subfamily KQT member 2 (Rattus norvegicus)
# assay_method_text: KCNQ2 potentiation in CHO cells – cell-based, FluxOR thallium flux, counter-screen for hERG block protector project, confirmation (AID 1942);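 also: normalized value minus buffer-control mean plus three SD of buffer wells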
# condition_info: FluxOR thallium flux fluorescence, at 10 µM, hits give high values
In all, about 2,400 compounds went through this assay and about 580 (24%) were called active. Only a sample is shown.
Reported activity change, less the hit threshold values for the following compounds.

compound | measured_on | activity change, less the hit threshold [%]
Cc1ccc(N=Cc2cc(Cl)cc(Cl)c2O)nc1 | Potassium voltage-gated channel subfamily KQT member 2 (Rattus norvegicus) | 22.5
Cc1ccc(N=Cc2cc(Br)cc(Cl)c2O)cc1 | Potassium voltage-gated channel subfamily KQT member 2 (Rattus norvegicus) | 5.8
CC(C)(C)n1nnnc1C(c1cccs1)N1CCN(Cc2ccccc2)CC1 (stereo not given) | Potassium voltage-gated channel subfamily KQT member 2 (Rattus norvegicus) | -11.7
CCn1cc(CCC(=O)NCc2cccc(OC)c2OC)c2ccccc21 | Potassium voltage-gated channel subfamily KQT member 2 (Rattus norvegicus) | -13
CCN1CCCC(CO)(Cc2ccccc2)C1 (stereo not given) | Potassium voltage-gated channel subfamily KQT member 2 (Rattus norvegicus) | -9.6

###

# measured_on: Potassium voltage-gated channel subfamily KQT member 2 (Rattus norvegicus) (UniProt O88943)
# assay_method_text: KCNQ2 potentiation in CHO cells – cell-based, FluxOR thallium flux, counter-screen for hERG block protector project, confirmation (AID 1942);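 also: normalized value minus buffer-control mean plus three SD of buffer wells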
# condition_info: FluxOR thallium flux fluorescence, at 10 µM, hits give high values
About 580 (24%) of roughly 2,400 compounds were called active. Not all results are given here.

compound | activity change, less the hit threshold (%)
COc1ccc(Cn2c(O)cc(=O)[nH]c2=O)cc1 | -20.5
CCCCC1(O)CC(C(F)(F)F)=NN1C(=O)COc1ccccc1 (stereo unspecified) | -22.2
CC(C)(C)NC(=O)CN(C(=O)CS(=O)CC(=O)Nc1ccc(F)cc1)c1cccc(F)c1 (stereo unspecified) | -11.2
COc1cccc(CN=c2c([N+](=O)[O-])nn(-c3ccccc3C)n2O)c1 | -19.6
Cn1c(=O)[nH]c(=O)c2c1nc(CN1CCN(c3ccccc3F)CC1)n2CCCc1ccccc1 | -12.9
O=C1C(c2ccccc2)C(c2ccccc2)NC(c2ccccc2)C1c1ccccc1 (stereo unspecified) | -17.9

###

# measured_on: Potassium voltage-gated channel subfamily KQT member 2 (Rattus norvegicus) (UniProt O88943)
# assay_method_text: KCNQ2 potentiation in CHO cells – cell-based, FluxOR thallium flux, counter-screen for hERG block protector project, confirmation (AID 1942);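 also: normalized value minus buffer-control mean plus three SD of buffer wells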
# condition_info: FluxOR thallium flux fluorescence, at 10 µM
Out of some 2,400 compounds screened, about 580 (24%) were called active.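 How the source made its calls: active means activity change at or above the mean plus 3 SD of buffer wells without dofetilide, per plate; inactive means the rest.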 Not all results are given here.
Possible outcomes: active, inactive

molecule | group_label
COC(=O)c1sccc1NS(=O)(=O)c1ccc(F)cc1F | inactive
O=[N+]([O-])c1ccccc1OCCNCc1ccccc1 | inactive
COc1ccccc1C(=O)NC(=S)NNC(=O)c1sc2ccccc2c1Cl | active
Fc1ccccc1-c1n[nH]c(=S)n1C1CC1 | inactive
O=C(CC(=O)c1ccccc1O)c1cccc(F)c1 | inactive
CCOC(=O)C1=C(c2ccccc2)NC(=O)NC1c1ccc(OC)c(OC)c1 (stereo unspecified) | inactive
COc1ccc2nc(NC(=S)NC(=O)c3ccco3)sc2c1 | active
COc1ccc(CC(=O)Nc2ccc(-c3noc(-c4ccccc4OC)n3)cc2)cc1 | inactive
Oc1c(Br)cc(Br)cc1C=Nc1cccc2ncccc12 | active
O=C(NC(=S)Nc1nc2ccc(F)cc2s1)c1ccco1 | active
Cc1oc(/N=C/c2ccc(F)cc2)c(C#N)c1C | inactive
O=C(NNc1nc2c(F)cccc2s1)c1cc(=O)c2ccccc2o1 | inactive
Cc1ccc(NC(=O)CN2C(=O)S/C(=C\c3cccn3-c3cccc(C(=O)O)c3)C2=O)c(C)c1 | inactive
O=C(COc1ccccc1[N+](=O)[O-])Nc1cc(Cl)ccc1C(=O)O | inactive
COc1ccc(-c2csc(NC(=S)NC(=O)c3ccco3)n2)cc1 | inactive
Cc1ccc(/C(O)=C2\C(=O)C(=O)N(Cc3cccnc3)C2c2ccccc2[N+](=O)[O-])cc1 (stereo unspecified) | inactive
Oc1c(Br)cc(Br)cc1CNc1cccc2cccnc12 | inactive
CCOC(=O)c1c(NC(=S)NC)sc2c1CCCC2 | active
COc1cccc(C(=O)NC(=S)Nn2cnnc2)c1OC | inactive
O=C(COC(=O)c1cccs1)NCCN1C(=O)CSC1=O | inactive
CC(=O)N(C1=C(N)C(=O)c2ccccc2C1=O)C(C)C | inactive
O=C1CCN(S(=O)(=O)c2ccc(Cl)cc2)CCN1 | inactive
CCN(Cc1ccc(OC)c(F)c1)C(=O)C1CCCO1 (stereo unspecified) | inactive
O=c1cc(-c2c(F)c(F)c(F)c(F)c2F)oc2ccccc12 | active
CC(C)(C)c1cc(-c2n[nH]c(=S)n2-c2ccccc2F)n[nH]1 | active
N#Cc1c(-c2ccco2)c2c([nH]c1=S)CCCC2 | inactive
Cn1c(=O)c2c(nc(Cl)n2CC(=O)N2CCCCC2)n(C)c1=O | inactive
COc1ccc(C)cc1S(=O)(=O)NC1CCCCC1 | inactive
CCn1nnnc1SCC(=O)N1c2ccccc2Sc2ccccc21 | inactive
COc1cc(OC)c(C2=NOC(C(=O)Nc3ccc4c(c3)OCO4)C2)cc1Cl (stereo unspecified) | inactive
CCOC(=O)C(=CNc1cc(C)ccc1[N+](=O)[O-])C(=O)OCC | inactive
O=C(CN1C(=O)c2ccccc2S1(=O)=O)NCCSCc1ccccc1Cl | inactive
Cc1ccc(NC(=S)NC(=O)c2sc3ccccc3c2Cl)c(C(=O)O)c1 | active
O=C(CN1CCCCCC1)Nc1ccc(Oc2ccccc2)cc1 | inactive
Fc1ccccc1N1CCN(c2cnc3ccccc3n2)CC1 | inactive
Cc1cc2ccccn2c1C(=S)NC(=O)c1ccccc1 | active
COc1cc(C2NC(=O)NC(C)=C2C(=O)OCC2CCCCC2)ccc1O (stereo unspecified) | inactive
O=C(NC(=S)Nc1nc(-c2ccccc2)cs1)c1ccco1 | inactive
O=C(NC(=S)NCc1ccc(-c2nc3ccccc3s2)cc1)c1ccco1 | inactive
CCSc1nc2c(c(=O)[nH]1)C(c1ccc(C)cc1)C1=C(CCCC1=O)N2 (stereo unspecified) | inactive
CCCCCC/C(C)=C1/SC(=S)NC1=O | active
